# tgt: T1, IL-11 (UniProt P20809 22-199, limits assumed)
# T1 construct: also called IL-11 protein; IL-11 antigen
# T1 sequence (looked up): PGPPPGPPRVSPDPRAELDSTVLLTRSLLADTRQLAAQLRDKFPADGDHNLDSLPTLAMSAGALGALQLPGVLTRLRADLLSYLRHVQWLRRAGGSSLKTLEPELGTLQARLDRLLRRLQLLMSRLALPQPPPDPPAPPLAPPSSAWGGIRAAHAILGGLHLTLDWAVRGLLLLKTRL
# protocol: SPR Biacore, scFv captured, IL-11 400 nM
quantity kind: koff (s⁻¹)
Quick reminder: number only, in s⁻¹, skip the unit.

Past entries and their recorded results:
* “VH3+VL2”-scFv (scFv) scFv: QVQLVQSGAEVKKPGASVKVSCKASDYTFTNYWLGWVRQAPGQGLEWIGHIYPGGGYTNYNEKFKGRATLTADTSTSTVYMELSSLRSEDTAVYFCARVRSGNDALDFWGQGTLVTVSSGGGGSGGGGSGGGGSEIVLTQSPATLSLSPGERATLSCRASESVDEYGISFMNWYQQKPGQAPRLLIYSASNQGSGIPARFSGSGSGTDFTLTISSLEPEDFAVYFCQQSKEVPWTFGGGTKLEIK | 0.00068
* “VH3+VL1”-scFv (scFv) scFv: QVQLVQSGAEVKKPGASVKVSCKASDYTFTNYWLGWVRQAPGQGLEWIGHIYPGGGYTNYNEKFKGRATLTADTSTSTVYMELSSLRSEDTAVYFCARVRSGNDALDFWGQGTLVTVSSGGGGSGGGGSGGGGSEIVLTQSPATLSLSPGERATLSCRASESVDEYGISFMNWYQQKPGQAPRLLIYSASNQGSGIPARFSGSGSGTDFTLTISSLEPEDFAVYYCQQSKEVPWTFGGGTKLEIK | 0.001
* “VH2+VL1”-scFv (scFv) scFv: QVQLVQSGAEVKKPGASVKVSCKASDYTFTNYWLGWVRQAPGQGLEWIGHIYPGGGYTNYNEKFKGRVTMTADTSTSTVYMELSSLRSEDTAVYFCARVRSGNDALDFWGQGTLVTVSSGGGGSGGGGSGGGGSEIVLTQSPATLSLSPGERATLSCRASESVDEYGISFMNWYQQKPGQAPRLLIYSASNQGSGIPARFSGSGSGTDFTLTISSLEPEDFAVYYCQQSKEVPWTFGGGTKLEIK | 0.00089

Which value of koff has been reported for “VH1+VL1”-scFv (scFv, CHO expression supernatant) scFv: QVQLVQSGAEVKKPGASVKVSCKASDYTFTNYWLGWVRQAPGQGLEWMGHIYPGGGYTNYNEKFKGRVTMTRDTSTSTVYMELSSLRSEDTAVYYCARVRSGNDALDFWGQGTLVTVSSGGGGSGGGGSGGGGSEIVLTQSPATLSLSPGERATLSCRASESVDEYGISFMNWYQQKPGQAPRLLIYSASNQGSGIPARFSGSGSGTDFTLTISSLEPEDFAVYYCQQSKEVPWTFGGGTKLEIK in the records?
0.000758

GET /values?readout=koff&item= “VH3+VL3”-scFv (scFv) scFv: QVQLVQSGAEVKKPGASVKVSCKASDYTFTNYWLGWVRQAPGQGLEWIGHIYPGGGYTNYNEKFKGRATLTADTSTSTVYMELSSLRSEDTAVYFCARVRSGNDALDFWGQGTLVTVSSGGGGSGGGGSGGGGSEIVLTQSPATLSLSPGERATLSCRASESVDEYGISFMNWFQQKPGQAPRLLIYSASNQGSGIPARFSGSGSGTDFTLTISSLEPEDFAVYFCQQSKEVPWTFGGGTKLEIK
0.000464

Query (binder): “VH2+VL4”-scFv (scFv) scFv: QVQLVQSGAEVKKPGASVKVSCKASDYTFTNYWLGWVRQAPGQGLEWIGHIYPGGGYTNYNEKFKGRVTMTADTSTSTVYMELSSLRSEDTAVYFCARVRSGNDALDFWGQGTLVTVSSGGGGSGGGGSGGGGSEIVLTQSPATLSLSPGERATLSCRASESVDEYGISFMNWFQQKPGQAPRLLIYSASNQGSGIPARFSGSGSGTDFTLTISSLEPEDFAMYFCQQSKEVPWTFGGGTKLEIK ; field requested: koff
0.000528

Can you share its koff? I mean this binder: “VH4+VL3”-scFv (scFv) scFv: QVQLVQSGAEVKKPGASVKVSCKASDYTFTNYWLGWVRQAPGHGLEWIGHIYPGGGYTNYNEKFKGRATLTADTSTSTVYMELSSLRSEDTAVYFCARVRSGNDALDFWGQGTLVTVSSGGGGSGGGGSGGGGSEIVLTQSPATLSLSPGERATLSCRASESVDEYGISFMNWFQQKPGQAPRLLIYSASNQGSGIPARFSGSGSGTDFTLTISSLEPEDFAVYFCQQSKEVPWTFGGGTKLEIK
0.000516

State the recorded koff for this entry: “VH4+VL2”-scFv (scFv) scFv: QVQLVQSGAEVKKPGASVKVSCKASDYTFTNYWLGWVRQAPGHGLEWIGHIYPGGGYTNYNEKFKGRATLTADTSTSTVYMELSSLRSEDTAVYFCARVRSGNDALDFWGQGTLVTVSSGGGGSGGGGSGGGGSEIVLTQSPATLSLSPGERATLSCRASESVDEYGISFMNWYQQKPGQAPRLLIYSASNQGSGIPARFSGSGSGTDFTLTISSLEPEDFAVYFCQQSKEVPWTFGGGTKLEIK
0.000614
